All values here come from patent US20080139611A1.

Tgt: COX-1 enzyme (Homo sapiens, UniProt P23219)
Construct: Human platelets are used; endogenous in cells; host or cells: human platelets
Sequence (P23219 24-599): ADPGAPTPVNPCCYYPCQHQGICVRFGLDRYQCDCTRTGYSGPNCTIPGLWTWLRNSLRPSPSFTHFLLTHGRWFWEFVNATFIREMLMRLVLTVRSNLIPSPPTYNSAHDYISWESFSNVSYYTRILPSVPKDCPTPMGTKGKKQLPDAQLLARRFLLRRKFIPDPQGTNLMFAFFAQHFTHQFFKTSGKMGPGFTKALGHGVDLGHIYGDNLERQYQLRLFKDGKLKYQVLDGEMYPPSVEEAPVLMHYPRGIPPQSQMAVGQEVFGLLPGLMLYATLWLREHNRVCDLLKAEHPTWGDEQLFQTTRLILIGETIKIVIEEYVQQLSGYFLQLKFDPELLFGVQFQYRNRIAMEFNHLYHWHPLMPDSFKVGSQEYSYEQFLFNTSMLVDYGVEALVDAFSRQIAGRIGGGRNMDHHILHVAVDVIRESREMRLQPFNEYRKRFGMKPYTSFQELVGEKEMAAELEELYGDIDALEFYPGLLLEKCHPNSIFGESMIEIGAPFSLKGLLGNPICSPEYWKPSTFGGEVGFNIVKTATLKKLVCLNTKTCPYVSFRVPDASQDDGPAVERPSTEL
Assay protocol: COX-1 inhibition in human platelets (PGE2 formation, EIA)
Format: cell-based
Condition notes: tested separately at 3 concentrations (0.01, 0.03 and 0.1 μM)
Assay metric: IC50 (nM)

• Cl.O=C(O)Cc1ccccc1Nc1ccnc2cc(C(F)(F)F)ccc12 [hydrochloride] = 81
